target: hACMSD (ACMSD1) (Homo sapiens, UniProt Q8TDX5); construct: made in house; host or cells: Pichia pastoris; assay: Determination of ACMSD1 inhibition, spectrophotometrical in vitro assay (conversion of 3OH-anthranilic acid into ACMS); assay type: biochemical; settings: HAA concentration of 10 μM; recombinant ACMSD1 from Pichia pastoris; 25° C.; absorbance at 360 nm
Sequence (Q8TDX5 whole entry): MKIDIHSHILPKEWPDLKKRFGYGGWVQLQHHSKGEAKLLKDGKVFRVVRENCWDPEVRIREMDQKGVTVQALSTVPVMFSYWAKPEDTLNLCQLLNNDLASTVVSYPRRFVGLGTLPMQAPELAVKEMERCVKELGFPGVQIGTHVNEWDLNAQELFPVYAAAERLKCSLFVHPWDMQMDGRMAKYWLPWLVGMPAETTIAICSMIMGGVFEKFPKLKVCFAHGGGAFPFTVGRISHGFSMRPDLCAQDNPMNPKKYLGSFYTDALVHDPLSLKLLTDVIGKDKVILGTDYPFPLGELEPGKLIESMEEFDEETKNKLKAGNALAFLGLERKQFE
pIC50: −log10 of the molar value.
Experimental Endpoint: pIC50

Request: Which value of pIC50 has been reported for "N#Cc1c(-c2cccs2)nc(SCc2cccc(CC(=O)O)c2)nc1N1CCNCC1" in the records?
Response: < 5.00

----------
biological target: hACMSD (ACMSD1) (Homo sapiens); test: Determination of ACMSD1 inhibition, spectrophotometrical in vitro assay (conversion of 3OH-anthranilic acid into ACMS); conditions: HAA concentration of 10 μM; recombinant ACMSD1 from Pichia pastoris; 25° C.; absorbance at 360 nm
pIC50: −log10 of the molar value.
Each record here notes measured pIC50.

> print(dat)
                                   compound                     test.system  experimental.endpoint   measurement
1  N#Cc1c(N)nc(SCc2cccc(CC(=O)O)c2)nc1-c1cccs1 [I-7]  hACMSD (ACMSD1) (Homo sapiens)                  pIC50  6.00 to 7.00
2  N#Cc1c(-c2cccs2)nc(SCc2cccc(CCO)c2)[nH]c1=O [I-12]  hACMSD (ACMSD1) (Homo sapiens)                  pIC50  5.00 to 6.00
3  N#Cc1c(Cc2ccccc2)cc(=O)[nH]c1SCc1cccc(CC(=O)O)c1 [I-23]  hACMSD (ACMSD1) (Homo sapiens)                  pIC50  5.00 to 6.00
4  N#Cc1c(Cc2ccccc2)nc(SCc2cccc(C(=O)O)c2)[nH]c1=O [I-35]  hACMSD (ACMSD1) (Homo sapiens)                  pIC50  6.00 to 7.00
5  N#Cc1c(-c2cccs2)nc(SCC(=O)O)[nH]c1=O [I-24]  hACMSD (ACMSD1) (Homo sapiens)                  pIC50  5.00 to 6.00

Request: Give its pIC50 value. Item: N#Cc1c(-c2cccs2)nc(NCc2ccc(-c3nnn[nH]3)cc2)[nH]c1=O [I-51]
Response: 6.00 to 7.00

Request: What about N#Cc1cnc(SCc2cccc(CC(=O)O)c2)nc1-c1cccs1 [I-8] ?
Response: 6.00 to 7.00

Sourced from patent US12186317B2
